# study system: Histone deacetylase 11 (Homo sapiens, UniProt Q96DB2)
# Sequence (Q96DB2 whole entry): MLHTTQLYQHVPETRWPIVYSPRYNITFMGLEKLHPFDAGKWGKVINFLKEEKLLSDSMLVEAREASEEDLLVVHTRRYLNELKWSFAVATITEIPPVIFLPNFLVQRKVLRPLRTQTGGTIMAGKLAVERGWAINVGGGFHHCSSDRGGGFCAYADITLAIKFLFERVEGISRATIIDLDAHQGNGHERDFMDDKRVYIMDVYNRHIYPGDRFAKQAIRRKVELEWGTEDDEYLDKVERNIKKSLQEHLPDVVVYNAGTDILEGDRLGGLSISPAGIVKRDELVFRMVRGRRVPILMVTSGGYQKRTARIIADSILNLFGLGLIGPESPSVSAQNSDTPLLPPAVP
# test method notes: Inhibition of full length human recombinant HDAC11 using FAM-RHKK(tri-fluor-Ac)-NH2 as substrate by electrophoretic mobility shift assay
property label: IC50 (µM)
Report the value in µM with no unit label.

The reported value for CCCCCCCCCCCCCCCC(=O)O [PALMITIC ACID] in terms of IC50 is 900

###

# study system: Histone deacetylase 11 (Homo sapiens) (UniProt Q96DB2)
# Sequence (Q96DB2 whole entry): as above
# test method notes: Inhibition of HDAC11 (unknown origin) expressed in HEK293T cells at 100 uM relative to control
# Type: cell-based
Catalogue of inhibition values

What the record says about "CC(=O)O" : inhibition is < 10%

###

# study system: Histone deacetylase 11 (Homo sapiens)
# test method notes: Inhibition of full length N-terminal GST-tagged human HDAC11
Square brackets hold non-standard residues; d marks the D form. Peptide text beside a SMILES is read from it. * marks the point of attachment. Asu = N[C@@H](CCCCCC(=O)O)C(=O)O; dPip = O=C(O)[C@H]1CCCCN1; NHOH = ON*
property label: pIC50
Note on pIC50: it is the negative log10 of concentration, concentration in mol/L.

Lab note: CC[C@H](C)[C@@H]1NC(=O)[C@H](Cc2c[nH]c3ccccc23)NC(=O)[C@H](CCCCCC(=O)NO)NC(=O)[C@H]2CCCCN2C1=O (cyclo([Asu](NHOH)WI[dPip])) gave pIC50 of 8.00

###

# study system: Histone deacetylase 8 (Homo sapiens)
# Sequence (Q9BY41 whole entry): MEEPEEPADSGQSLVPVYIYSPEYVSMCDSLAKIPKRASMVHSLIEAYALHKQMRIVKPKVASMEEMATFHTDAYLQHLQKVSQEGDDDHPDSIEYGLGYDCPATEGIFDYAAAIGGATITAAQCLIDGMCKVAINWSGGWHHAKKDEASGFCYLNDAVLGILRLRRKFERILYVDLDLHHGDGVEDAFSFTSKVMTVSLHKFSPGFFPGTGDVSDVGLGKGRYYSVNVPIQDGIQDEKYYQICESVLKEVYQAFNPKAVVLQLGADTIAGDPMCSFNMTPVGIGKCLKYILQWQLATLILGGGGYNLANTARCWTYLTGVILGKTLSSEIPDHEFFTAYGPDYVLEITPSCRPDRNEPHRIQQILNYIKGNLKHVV
# test method notes: Inhibition of human Flag-tagged HDAC8 expressed in HEK293T cells by fluorescence based analysis
# IC50 per record follows

{"columns": ["smiles representation", "study system", "observed result"],
 "data": [
  ["CCCCCCCCCCCCCCCCNNC(=O)c1ccc(N(C)C)cc1", "Histone deacetylase 8 (Homo sapiens)", "> 100 µM"]
]}

Could you now consider this next compound?
// field: IC50; key: "CCCCCCCCCCCCCCCCNNC(=O)c1cccs1" ; value = > 100 µM

###

# study system: Histone deacetylase 11 (Homo sapiens)
# test method notes: Inhibition of HDAC11 (unknown origin) expressed in HEK293T cells at 100 uM relative to control
# Format: cell-based
Measured inhibition, listed per entry for reference.

Some molecules with known inhibition results, for comparison:
{"columns": ["smiles representation", "inhibition"],
 "data": [
  ["O=C(O)CCCC[C@@H]1SC[C@@H]2NC(=O)N[C@@H]21", "< 20%"],
  ["CCCCCC(=O)O", "< 20%"],
  ["CCCCCCCC(=O)O", "< 20%"],
  ["CCC(=O)O", "< 10%"],
  ["O=C(O)C(F)(F)F", "< 5%"]
]}

inhibition in this record for "CCCC(=O)O" : < 5%

"O=C(O)CCCC[C@@H]1CCSS1" yielded inhibition of < 20%
